Assay: chemical genetic growth profiling, strain panel (AID 1159580);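 also: tested at 20 µM; growth read once vehicle control cultures reached saturation at 30 °C; 1 = growth at the plate median or of vehicle wells; lower values mean less growth of the strain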
Conditions: S. cerevisiae deletion strains, growth OD, locus YEL003W, strain gim4, hits give low values
Out of some 5,500 compounds screened, about 2,000 (36%) were called active. Not shown: some 18% with an inconclusive outcome. This is one part of the list.
recorded_metric: normalized growth
Number, no unit, nothing else.

compound: O=C1c2c(O)cccc2Cc2cccc(O)c21
assay_value: 1.03

Need normalized growth, item Cc1ccc(S(=O)(=O)NC(=O)NN2CC3CCCC3C2)cc1 (centres undefined)
0.968

----------
Test: chemical genetic growth profiling, strain panel (AID 1159580)
Conditions: S. cerevisiae deletion strains, growth OD, locus YCL016C, strain dcc1
About 2,000 (36%) of roughly 5,500 compounds were called active. Not shown: some 18% with an inconclusive outcome. No stated cut-off is given here; in the data, active means normalized growth mostly below about 0.91 (no sharp cut-off); inconclusive means no clear call, values can overlap the other calls; inactive means mostly above about 0.92. The list shows a part of the results.
# valid calls are True for active, False for inactive; nothing else

Study these solved cases before continuing.
molecule: C[C@@H]1OC(O[C@H]2C(O[C@H]3CC[C@@]4(C)C(CC[C@]5(C)C4CC=C4C6CC(C)(C)CC[C@]6(C(=O)O)CC[C@]45C)[C@]3(C)CO)OC[C@H](O)[C@@H]2O)[C@H](O)[C@H](O)[C@H]1O (stereo partly specified)
assigned_class: True

molecule: CC(=O)O[C@H]1CC[C@@]2(C)C(CC[C@]3(C)C2CC=C2C4CC(C)(C)CC[C@]4(C)CC[C@]23C)C1(C)C (stereo partly specified)
assigned_class: False

molecule: CCC(C)C(=O)O[C@H]1[C@H](O)C2C(CN3CC(C)CCC3[C@@]2(C)O)C2C[C@]34O[C@]5(O)C(OC(=O)C(C)(O)CC)CC[C@@]3(C)C5C(OC(C)=O)[C@@H](OC(C)=O)C4[C@@]21O (stereo partly specified)
assigned_class: False

molecule: COC1=C[C@@H]2[C@@H]3Cc4ccc(OC)c(O)c4[C@]2(CCN3C)CC1=O
assigned_class: False

molecule: CC1(C)CC(O)C2(C)CCC3(C)C(=CCC4C5(C)CCC(O)C(C)(CO)C5CCC43C)C2C1 (stereo unspecified)
assigned_class: False

Turning to the following molecule.
Identify the outcome logged in this assay for the molecule shown: CC(CC(=O)C(O)C(C)(C)O)C1C(=O)CC2(C)C3=CCC4C(C)(C)C(OC5OCC(O)C(O)C5O)CCC45CC35C(O)CC12C (stereo unspecified)
False

----------
Test: chemical genetic growth profiling, strain panel (AID 1159580)
Conditions: S. cerevisiae deletion strains, growth OD, locus YNR049C, strain mso1
Out of some 5,500 compounds screened, about 2,000 (36%) were called active. Inconclusive results (about 18%) are left out. No stated cut-off is given here; in the data, active means normalized growth mostly below about 0.91 (no sharp cut-off); inconclusive means no clear call, values can overlap the other calls; inactive means mostly above about 0.92. Some of the results follow.
# valid calls are active, inactive; nothing else

compound: C[C@@H]1CC[C@H]2[C@@H](C)C(O)O[C@@H]3O[C@@]4(C)CC[C@@H]1[C@]32OO4 (stereo partly specified)
assigned_class: active

Identify the outcome logged in this assay for the compound shown: CCC(C)C(=O)O[C@H]1[C@H](O)C2C(CN3CC(C)CCC3[C@@]2(C)O)C2C[C@]34O[C@]5(O)C(OC(=O)C(C)(O)CC)CC[C@@]3(C)C5C(OC(C)=O)[C@@H](OC(C)=O)C4[C@@]21O (stereo partly specified)
inactive

Record: FC(F)(F)c1ccccc1-n1ccnc1
inactive

Record: NC(Cc1c[nH]c2ccccc12)C(=O)O (stereo unspecified)
inactive

Record: Cc1ccc(N=CN(C)C=Nc2ccc(C)cc2C)c(C)c1
inactive

Record: CC(C)CC(N(C)C)C1(c2ccc(Cl)cc2)CCC1 (stereo unspecified)
inactive

----------
Test: chemical genetic growth profiling, strain panel (AID 1159580)
Details: S. cerevisiae deletion strains, growth OD, locus YER133W, strain GLC7, hits give low values
The campaign covered roughly 5,500 compounds. About 2,000 (36%) were called active. Another 18% or so got no clear call; they are omitted. The list shows a part of the results.
recorded_metric: normalized growth
Number, no unit, nothing else.

Solved entries:
molecule: Cc1ccc(S(=O)(=O)n2c(Sc3ccc([N+](=O)[O-])cc3[N+](=O)[O-])nc3cc(C)ccc32)cc1
normalized growth: 0.945
--
molecule: Cc1oc(C(C)(C)C)cc1-c1cc(N)n(-c2ccc(I)cc2)n1
normalized growth: 0.992
--
molecule: O=C(Nc1ccccc1Sc1ccc([N+](=O)[O-])cc1[N+](=O)[O-])C(Cl)(Cl)Cl
normalized growth: 0.969

Need normalized growth, item O=C(c1cccs1)N(Cc1cccnc1)Cc1ccc(Cl)cc1Cl
0.946

Record: Brc1ccc2[nH]c3c(c2c1)CCC3
0.668

Record: CSc1n[nH]c(-c2cc(C(F)(F)F)cc(C(F)(F)F)c2)n1
0.935

----------
Test: chemical genetic growth profiling, strain panel (AID 1159580)
Conditions: S. cerevisiae deletion strains, growth OD, locus YLR370C, strain arc18
Among all 5,500 compounds or so, about 2,000 (36%) were called active. Not shown: some 18% with an inconclusive outcome. No stated cut-off is given here; in the data, active means normalized growth mostly below about 0.91 (no sharp cut-off); inconclusive means no clear call, values can overlap the other calls; inactive means mostly above about 0.92. This is one part of the list.
# valid calls are True for active, False for inactive; nothing else

molecule: C[C@@H]1CC[C@H]2[C@@H](C)C(O)O[C@@H]3O[C@@]4(C)CC[C@@H]1[C@]32OO4 (some centres undefined)
assigned_class: True
--
molecule: NNc1nncc2ccccc12
assigned_class: False
--
molecule: COc1ccc2c(c1)c(CC(=O)OCC(=O)O)c(C)n2C(=O)c1ccc(Cl)cc1
assigned_class: False
--
molecule: CC1=NS(=O)(=O)c2cc(Cl)ccc2N1
assigned_class: False
--
molecule: Nc1ccc(S(=O)(=O)Nc2ccnn2-c2ccccc2)cc1
assigned_class: False
--
molecule: CNCc1ccccc1
assigned_class: False
--
molecule: Nc1c2c(nc3ccccc13)CCCC2
assigned_class: False
--
molecule: C[C@@H]1C(=O)O[C@H]2[C@H]1CC[C@@]1(C)C=CC(=O)[C@@]3(C)O[C@@]213
assigned_class: False
--
molecule: CC(C)(Sc1cc(C(C)(C)C)c(O)c(C(C)(C)C)c1)Sc1cc(C(C)(C)C)c(O)c(C(C)(C)C)c1
assigned_class: False
--
molecule: Nc1c2c(nc3ccccc13)CCCC2O (centres undefined)
assigned_class: False

Identify the outcome logged in this assay for the molecule shown: CCN1C[C@]2(OC(=O)c3ccccc3NC(C)=O)CCC(OC)[C@]34C1[C@H](CC23)[C@@]1(O)CC(OC)[C@H]2CC4C1(O)[C@H]2OC (some centres undefined)
False

Record: COc1cc(C(=O)NCCCCCC(=O)O)cc(OC)c1OC
False

Record: CCC(C)C(NC)C(=O)O (centres undefined)
False

----------
Assay: chemical genetic growth profiling, strain panel (AID 1159580);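 also: tested at 20 µM; growth read once vehicle control cultures reached saturation at 30 °C; 1 = growth at the plate median or of vehicle wells; lower values mean less growth of the strain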
Conditions: S. cerevisiae deletion strains, growth OD, locus YER155C, strain BEM2
The whole screen tested about 5,500 compounds, of which about 2,000 (36%) were called active. Inconclusive results (about 18%) are left out. Rule as the data show it: active = normalized growth mostly below about 0.91 (no sharp cut-off); inconclusive = no clear call, values can overlap the other calls; inactive = mostly above about 0.92. The list shows a part of the results.
# valid calls are 1 (yes) for active, 0 (no) for inactive; nothing else

compound: C#C[C@]1(O)CCC2C3CCC4=CC(=O)CC[C@@H]4C3CC[C@@]21C (stereo partly specified)
assigned_class: 0 (no)

compound: Nc1ccc(S(=O)(=O)c2ccc(N)cc2)cc1
assigned_class: 0 (no)

compound: N=C(N)c1ccc(OCCCCCOc2ccc(C(=N)N)cc2)cc1
assigned_class: 0 (no)

compound: C[C@]12CCC(=O)C=C1CCC1C2[C@@H](O)C[C@@]2(C)C1CC[C@]2(O)C(=O)CO (stereo partly specified)
assigned_class: 0 (no)

Turning to the following compound.
Identify the outcome logged in this assay for the compound shown: OC(CCN1CCCCC1)(c1ccccc1)C1CCCCC1 (stereo unspecified)
1 (yes)

----------
Assay: chemical genetic growth profiling, strain panel (AID 1159580);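 also: tested at 20 µM; growth read once vehicle control cultures reached saturation at 30 °C; 1 = growth at the plate median or of vehicle wells; lower values mean less growth of the strain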
Conditions: S. cerevisiae deletion strains, growth OD, locus YPL055C, strain LGE1, hits give low values
In all, about 5,500 compounds went through this assay and about 2,000 (36%) were called active. About 18% were inconclusive and are not listed. The list shows a part of the results.
Threshold check on normalized growth: strictly below 1 is yes (1); on or above 1 is no (0).

structure_notation: NCCC(=O)N[C@@H](Cc1cnc[nH]1)C(=O)O
assigned_class: no (0)

structure_notation: CCOC(=O)c1sc(-c2ccc(C)cc2)nc1O
assigned_class: yes (1)

Please indicate whether the reported normalized growth of NC(N)=[N+]1CCc2ccccc2C1 is strictly below 1.
yes (1)

Record: CC(C)(C)c1ccc(-c2n[nH]c(=S)n2-c2cccc(C(F)(F)F)c2)cc1
yes (1)

Record: N[C@H](C(=O)O)[C@@H]1CC(Cl)=NO1
yes (1)

----------
Assay: chemical genetic growth profiling, strain panel (AID 1159580);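 also: tested at 20 µM; growth read once vehicle control cultures reached saturation at 30 °C; 1 = growth at the plate median or of vehicle wells; lower values mean less growth of the strain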
Conditions: S. cerevisiae deletion strains, growth OD, locus YNL298W, strain CLA4 (second series), hits give low values
In all, about 5,500 compounds went through this assay and about 2,000 (36%) were called active. About 18% were inconclusive and are not listed. Some of the results follow.
Threshold check on normalized growth: strictly below 1 is yes; on or above 1 is no.

Study these solved cases before continuing.
structure_notation: O=C(O)c1ccc(N=Cc2ccc3c(c2)OCO3)cc1
assigned_class: no
--
structure_notation: O=C(O)/C=C/C(=O)Nc1ccc(-n2nc(C(F)(F)F)cc2C(F)(F)F)cc1
assigned_class: no
--
structure_notation: Nc1ccc(-n2nc(C(F)(F)F)cc2C(F)(F)F)cc1
assigned_class: yes
--
structure_notation: O=C(NC1Cc2ccccc2C1)c1cncc(Br)c1
assigned_class: yes
--
structure_notation: COc1cccc(-c2nc(C#N)c(N)o2)c1
assigned_class: yes
--
structure_notation: N#C/C(NCc1cccs1)=C(\C#N)NCc1c(F)cccc1Cl
assigned_class: yes

Turning to the following compound.
Please indicate whether the reported normalized growth of Cc1cc(OCOc2ccc(Cl)c(C)c2)ccc1Cl is strictly below 1.
no
